assay_target: Arachidonate 5-lipoxygenase-activating protein (Homo sapiens) (UniProt P20292)
Sequence (P20292 whole entry): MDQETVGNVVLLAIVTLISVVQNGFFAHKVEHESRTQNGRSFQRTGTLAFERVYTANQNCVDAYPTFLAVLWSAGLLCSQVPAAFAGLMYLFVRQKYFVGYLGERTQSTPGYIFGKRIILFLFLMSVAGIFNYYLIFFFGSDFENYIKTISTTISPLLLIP
assay_text: Inhibition of FLAP in A23187-stimulated human neutrophils assessed as remaining enzyme activity by measuring 5-LO product formation at 1 uM preincubated for 15 mins followed by A23187 and arachidonic acid addition and measured after 10 mins by UV based RP-HPLC analysis (reference value: 100%)
So basically, if Activity comes in under 30% it's t, and if it's 30% or more it's f.

## Task Criterion: Activity strictly below 30%. Is it met by CC(C)Cc1ccc(C(C)c2nc3cc(-c4ccc(C(=O)O)cc4)ccc3n2Cc2ccccc2Cl)cc1 (centres undefined) ?
## Result t

## Task Criterion: Activity strictly below 30%. Is it met by CC(C)Cc1ccc(C(C)c2nc3cc(S(N)(=O)=O)ccc3n2Cc2ccccc2Cl)cc1 (centres undefined) ?
## Result t

## Task Criterion: Activity strictly below 30%. Is it met by Cc1nc(-c2ccc3c(c2)nc(C(C)c2ccc(CC(C)C)cc2)n3Cc2ccccc2Cl)no1 (centres undefined) ?
## Result t

## Task Criterion: Activity strictly below 30%. Is it met by CC(C)Cc1ccc(C(C)c2nc3cc(OCC(=O)O)ccc3n2Cc2ccccc2Cl)cc1 (centres undefined) ?
## Result t

## Task Criterion: Activity strictly below 30%. Is it met by CC(C)Cc1ccc(C(C)c2nc3cc(C(N)=O)ccc3n2Cc2ccccc2Cl)cc1 (centres undefined) ?
## Result t

## Task Criterion: Activity strictly below 30%. Is it met by "N#Cc1ccc2c(c1)nc(NCc1ccc3cc[nH]c3c1)n2Cc1ccccc1Cl" ?
## Result f

## Task Criterion: Activity strictly below 30%. Is it met by CC(C)Cc1ccc(C(C)c2nc3cc(-c4cccc(C(=O)O)c4)ccc3n2Cc2ccccc2Cl)cc1 (centres undefined) ?
## Result t

## Task Criterion: Activity strictly below 30%. Is it met by CC(C)Cc1ccc(C(C)c2nc3c(CCC(=O)O)cccc3n2Cc2ccccc2Cl)cc1 (centres undefined) ?
## Result t

## Task Criterion: Activity strictly below 30%. Is it met by "N#Cc1ccc2c(c1)nc(CCc1ccc(-c3ccc(N)nc3)cc1)n2Cc1ccccc1Cl" ?
## Result t

## Task Criterion: Activity strictly below 30%. Is it met by CC(C)Cc1ccc(C(C)c2nc3cc(-c4n[nH]c(=S)o4)ccc3n2Cc2ccccc2Cl)cc1 (centres undefined) ?
## Result t

## Task Criterion: Activity strictly below 30%. Is it met by CC(C)Cc1ccc(C(C)c2nc3c(C(=O)O)cccc3n2Cc2ccccc2Cl)cc1 (centres undefined) ?
## Result f

## Task Criterion: Activity strictly below 30%. Is it met by CC(C)Cc1ccc(C(C)c2nc3cc(CC(=O)O)ccc3n2Cc2ccccc2Cl)cc1 (centres undefined) ?
## Result t

## Task Criterion: Activity strictly below 30%. Is it met by CC(C)Cc1ccc(C(C)c2nc3cc(-c4nc(C(=O)O)cs4)ccc3n2Cc2ccccc2Cl)cc1 (centres undefined) ?
## Result t

## Task Criterion: Activity strictly below 30%. Is it met by CC(C)Cc1ccc(C(C)c2nc3cc(C(N)=S)ccc3n2Cc2ccccc2Cl)cc1 (centres undefined) ?
## Result t

## Task Criterion: Activity strictly below 30%. Is it met by CC(C)Cc1ccc(C(C)c2nc3cc(-c4nnn[nH]4)ccc3n2Cc2ccccc2Cl)cc1 (centres undefined) ?
## Result t

## Task Criterion: Activity strictly below 30%. Is it met by CC(C)Cc1ccc(C(C)c2nc3c(CC(=O)O)cccc3n2Cc2ccccc2Cl)cc1 (centres undefined) ?
## Result f

## Task Criterion: Activity strictly below 30%. Is it met by CC(C)Cc1ccc(C(C)c2nc3cc(C(=O)O)ccc3n2Cc2ccccc2Cl)cc1 (centres undefined) ?
## Result t

## Task Criterion: Activity strictly below 30%. Is it met by "CC(C)Cc1ccc(-c2nc3cc(C#N)ccc3n2Cc2ccccc2Cl)cc1" ?
## Result f

## Task Criterion: Activity strictly below 30%. Is it met by CCC(C)c1ccc(C(C)c2nc3cc(C#N)ccc3n2Cc2ccccc2Cl)cc1 (centres undefined) ?
## Result f

## Task Criterion: Activity strictly below 30%. Is it met by CC(C)Cc1ccc(C(C)c2nc3cc(OC(C)(C)C(=O)O)ccc3n2Cc2ccccc2Cl)cc1 (centres undefined) ?
## Result t

## Task Criterion: Activity strictly below 30%. Is it met by "N#Cc1ccc2c(c1)nc(CCc1ccc(-c3ccc(N)nn3)cc1)n2Cc1ccccc1Cl" ?
## Result t

## Task Criterion: Activity strictly below 30%. Is it met by "CC(C)Oc1ccc(-c2nc3cc(C#N)ccc3n2Cc2ccccc2Cl)cc1" ?
## Result f

## Task Criterion: Activity strictly below 30%. Is it met by "N#Cc1ccc2c(c1)nc(NCCc1c[nH]c3ccccc13)n2Cc1ccccc1Cl" ?
## Result f

## Task Criterion: Activity strictly below 30%. Is it met by CC(C)Cc1ccc(C(C)c2nc3cc(-c4nnco4)ccc3n2Cc2ccccc2Cl)cc1 (centres undefined) ?
## Result t

## Task Criterion: Activity strictly below 30%. Is it met by CC(C)Cc1ccc(C(C)c2nc3cc(-c4ccccc4C(=O)O)ccc3n2Cc2ccccc2Cl)cc1 (centres undefined) ?
## Result f

## Task Criterion: Activity strictly below 30%. Is it met by CC(C)Cc1ccc(C(C)c2nc3cc(CCC(=O)O)ccc3n2Cc2ccccc2Cl)cc1 (centres undefined) ?
## Result t

## Task Criterion: Activity strictly below 30%. Is it met by CC(Cc1ccc(-c2cnc(N)nc2)cc1)c1nc2cc(C#N)ccc2n1Cc1ccccc1Cl (centres undefined) ?
## Result t

## Task Criterion: Activity strictly below 30%. Is it met by CC(c1ccc(CC(C)(C)C)cc1)c1nc2cc(C#N)ccc2n1Cc1ccccc1Cl (centres undefined) ?
## Result f

## Task Criterion: Activity strictly below 30%. Is it met by "N#Cc1ccc2c(c1)nc(CCc1ccc(-c3cnc(N)cn3)cc1)n2Cc1ccccc1Cl" ?
## Result t
